Reported % block by item:
- target_under_test: T1, human CX3CR1 (human, UniProt P49238 1-355)
- T1 construct: overexpressed on CHO, BA/F3 or HEK293T cells; also called huCX3CR1; hCX3CR1
- T1 sequence: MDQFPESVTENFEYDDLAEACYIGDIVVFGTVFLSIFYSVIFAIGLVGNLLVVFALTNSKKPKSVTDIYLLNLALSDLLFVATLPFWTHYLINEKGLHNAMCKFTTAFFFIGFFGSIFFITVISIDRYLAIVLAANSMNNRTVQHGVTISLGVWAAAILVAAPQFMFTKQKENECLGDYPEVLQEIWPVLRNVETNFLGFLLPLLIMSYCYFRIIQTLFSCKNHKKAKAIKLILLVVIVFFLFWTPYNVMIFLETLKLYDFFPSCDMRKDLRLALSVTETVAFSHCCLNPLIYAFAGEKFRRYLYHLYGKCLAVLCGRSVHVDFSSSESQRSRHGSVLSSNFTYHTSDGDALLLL
- test_details: fractalkine competition FACS
Report the figure in % without appending any unit label.

Sample records with % block:
C100CX3CR1BII047 (VHH, 66B02 with S11L, A14P, A74S, K83R, Q108L; not shown: myc/His tag) VHH: EVQLVESGGGLVQPGESLRLSCAASGSIFSSNAMAWYRQAPGKRRDLVAAINSVGVTKYADSVKGRFTISRDNSKNTVYLQMNSLRPEDTAVYYCTSDPRRGWDTRYWGQGTLVTVSS :: 101
C100CX3CR1BII049 (VHH, 66B02 with A14P, R44Q, A74S, K83R, Q108L; not shown: myc/His tag) VHH: EVQLVESGGGSVQPGESLRLSCAASGSIFSSNAMAWYRQAPGKQRDLVAAINSVGVTKYADSVKGRFTISRDNSKNTVYLQMNSLRPEDTAVYYCTSDPRRGWDTRYWGQGTLVTVSS :: 101

Please examine the following record next.
# query: % block of entry C100CX3CR1BII050 (VHH, 66B02 with A14P, D46E, A74S, K83R, Q108L; not shown: myc/His tag) VHH: EVQLVESGGGSVQPGESLRLSCAASGSIFSSNAMAWYRQAPGKRRELVAAINSVGVTKYADSVKGRFTISRDNSKNTVYLQMNSLRPEDTAVYYCTSDPRRGWDTRYWGQGTLVTVSS
101
